Kindly state TGI for each of the entries shown.
Test system: RXF 393 renal
Assay: NCI tumour cell line growth inhibition, 48 h

Request: Name the reported TGI value associated with the compound O=C(CN(/C=C/C(=O)C(F)(F)F)c1ccccc1)c1ccc(F)cc1
Result: > 100 µM

Request: Name the recorded TGI for Nc1ncnc2c1N=C(c1ccccc1)CC(c1ccccc1)N2 (stereo not drawn) .
Result: > 100 µM

Request: Give its TGI value. Item: CC(C)=CC(=O)CC(=O)C(=O)NCCNC(=O)C(=O)CC(=O)C=C(C)C
Result: > 50 µM

Request: Request the reported TGI associated with COc1cccc(-c2[nH]c3cc4c(cc3c(=O)c2C(=O)O)OCO4)c1
Result: > 100 µM

Request: What does the record list as TGI for CO/C(=N\N=C(/c1ccccc1)C(F)(F)F)c1ccncc1 ?
Result: > 100 µM

Request: Fill in: TGI of O=C1c2ccccc2-c2c1c1ccc([N+](=O)[O-])cc1c(=O)n2CCCCl is ___
Result: > 100 µM

Request: Name the recorded TGI for COC1(c2ccccc2)NC(=S)NN=C1c1ccccc1 (stereo not drawn) .
Result: > 100 µM

Request: Fill in the blank: the reported TGI of O[C@]12c3ccccc3C1CCCCC2N1CCOCC1 (stereo partly drawn) is ____.
Result: > 100 µM

Request: Give its TGI value. Item: CCC1=C(c2ccc(OC)cc2)CC[C@]2(CCNC2=O)[C@@H]1C
Result: > 100 µM

Request: What value of TGI has been recorded for this entry: O=C(Nc1nc2c(s1)CCc1c-2c(Br)n(Cc2ccccc2)c1Br)c1ccccc1
Result: 7.69 µM

Request: Which TGI is listed for CC(=O)c1sc2c(c1O)c(=O)n(-c1ccccc1)c(=S)n2-c1ccccc1 ?
Result: > 100 µM

Request: Please look up its TGI: CCOC(=O)n1c2ccccc2c(=O)n1CCO
Result: > 100 µM

Request: What value of TGI has been recorded for this entry: c1csc(C(NC2=NCCO2)C2CC2)c1 (stereo not drawn)
Result: > 100 µM

Request: What does the data say about its TGI? Entry: CC(C)=NNc1ncnc2nc[nH]c12
Result: > 100 µM

Request: If you can, please state the reported TGI value of CCN(CC)Cc1ccc(Nc2c3ccccc3nc3ccccc23)cc1 .
Result: 3.96 µM

Request: // lookup TGI for C=C1C(=O)O[C@@H]2[C@H]1C[C@H](I)[C@@]1(C)CC[C@H](O1)[C@](C)(I)CCCC(C)[C@@H]2O (stereo partly drawn)
Result: 4.44 µM

Request: TGI for Cn1cnnc1SC(F)(F)c1nc2ccccc2o1 ?
Result: > 100 µM

Request: What value of TGI has been reported for the following compound? Cc1ccc(C(=O)N2C/C(=C/c3ccccc3)C(=O)/C(=C/c3ccccc3)C2)cc1
Result: 6.39 µM

Request: Give its TGI value. Item: O=C1C2C(C(=O)N1CC[Se][Se]CCN1C(=O)C3C(C1=O)[C@H]1C=C[C@@H]3C1)[C@H]1C=C[C@@H]2C1 (stereo partly drawn)
Result: 1.11 µM

Request: // returns reported TGI for input CC(C)(CC1(C)NC(=O)NC1=O)OCc1ccccc1 (stereo not drawn)
Result: > 100 µM

Request: What value of TGI has been recorded for this entry: Cc1ccc(O)cc1Nc1ccnc2cc(-c3ccccn3)ccc12
Result: 5.37 µM

Request: I would be grateful if you could share the reported TGI for O/N=C1\CSc2ccccc2C1 .
Result: > 100 µM

Request: Find the recorded TGI belonging to Cc1ccc(-c2nc(C(Cl)Cl)nc3cc(C)nn23)cc1 and report it.
Result: 2.36 µM

----------
Test system: SNB-75 CNS
Assay: NCI tumour cell line growth inhibition, 48 h
measured.attribute: TGI

Request: Bench note: what TGI did O=C([O-])C1([n+]2c(-c3ccccc3)cc(-c3ccccc3)cc2-c2ccccc2)CC1 show?
Result: > 100 µM

Request: Bench note: what TGI did CON(C)C(=O)C(C)NC(=O)OC(C)(C)C (stereo not drawn) show?
Result: > 100 µM

Request: Could you share which TGI value was measured for COc1cccc(/C=C2/S/C(=N/Nc3nc(C)c(C(C)=O)s3)NC2=O)c1O ?
Result: > 100 µM

----------
Tested on: U251 CNS
Experiment: NCI tumour cell line growth inhibition, 48 h
Please respond with reported TGI for every item in the list.

Request: Which TGI value belongs to Cc1cc(/N=C/c2ccc(Cl)cc2)n(-c2ccccc2)n1 ?
Result: > 100 µM

Request: What does the record list as TGI for CCN(CCNc1ccc(C)c2sc3cc(Cl)ccc3c(=O)c12)CC(C)(C)O ?
Result: 18.5 µM

Request: Given CCOP(=O)(/C=C/n1cnc2c(=O)n(C(C)=O)c(N)nc21)OCC , state its recorded TGI.
Result: > 100 µM

Request: Consider the molecule CC1=NNC(=O)[C@H]2[C@H]1CCC1[C@@H]2CC[C@]2(C)[C@@H](O)CC[C@@H]12 (stereo not given in full) and give its measured TGI.
Result: > 100 µM

Request: May I ask what TGI has been recorded for O=C1Nc2ccccc2C1S(=O)(=O)c1ccccc1 (stereo not given) ?
Result: > 100 µM

Request: Item Clc1cccc2[nH]ncc12 has what recorded TGI?
Result: > 100 µM

Request: I would be grateful if you could share the reported TGI for CC(C)=CC(=O)CC(=O)C(=O)NCCNC(=O)C(=O)CC(=O)C=C(C)C .
Result: > 50 µM

Request: Any idea what its TGI is? The molecule is COC1(c2ccccc2)NC(=S)NN=C1c1ccccc1 (stereo not given)
Result: 46.6 µM

Request: Return reported TGI; argument: O=C1c2ccccc2-c2c1c1ccc([N+](=O)[O-])cc1c(=O)n2CCCCl
Result: > 100 µM

Request: # get_value(readout='TGI', item= O=C(O)C1=C(C(=O)O)Oc2ccccc2O1 )
Result: > 100 µM

Request: Suppose we examine the molecule CCOC(=O)n1c2ccccc2c(=O)n1CCO ; what TGI value has been reported?
Result: > 100 µM

Request: Record request: TGI value, item O=c1[nH]nc(Cc2ccccc2)n1C1CC1
Result: > 100 µM

Request: Need TGI of O=C1C2C(C(=O)N1CC[Se][Se]CCN1C(=O)C3C(C1=O)[C@H]1C=C[C@@H]3C1)[C@H]1C=C[C@@H]2C1 (stereo not given in full) , thanks.
Result: 3.04 µM

Request: Given CC/C(=C(/c1ccc(/C=C/C(=O)O)cc1)c1ccc2[nH]ncc2c1)c1ccc(F)cc1Cl , state its recorded TGI.
Result: 23.5 µM

Request: Name the recorded TGI for O=C1c2ccccc2-n2c1nc1ccc(Cl)cc1c2=O .
Result: > 100 µM

----------
Kindly supply the reported TGI values for the records listed here.
Test system: A549 NSCLC
Assay: NCI tumour cell line growth inhibition, 48 h

Request: Query: TGI; subject: Oc1c(I)cc(Cl)c2cccnc12
Result: > 100 µM

Request: Given Nc1ncnc2c1N=C(c1ccccc1)CC(c1ccccc1)N2 (stereo not given) , state its recorded TGI.
Result: > 100 µM

Request: Dear colleague, I am looking for the recorded TGI of the following compound: CSc1nc(C)c(CCOC(C)=O)c(N=P(c2ccccc2)(c2ccccc2)c2ccccc2)n1
Result: > 10 µM

Request: Can you share its TGI? I mean this compound: NNC(=O)N/N=C1\CNC(=O)C(=O)C1c1nc2ccccc2s1 (stereo not given)
Result: > 100 µM

Request: Name the reported TGI value associated with the compound CC1=NN(C(=O)c2ccc(C)cc2)C(=O)C1N=Nc1ccccc1C(=O)O (stereo not given)
Result: > 100 µM

----------
Tested on: HS 578T breast
Test: NCI tumour cell line growth inhibition, 48 h
Provide the recorded TGI for the entries that follow.

Request: Could you share what TGI was measured for CN(c1ccc(NC(=O)NCCN2CCOCC2)cc1)c1ccnc(Nc2ccc(CS(C)(=O)=O)cc2)n1 , tested on HS 578T breast?
Result: > 25 µM

Request: Tell me reported TGI for NCC(Cc1ccccc1)P(=O)(O)O (centres undefined) , tested with HS 578T breast.
Result: > 100 µM

Request: Checklist item: TGI tested on HS 578T breast, entry O=C1Nc2ccccc2C1S(=O)(=O)c1ccccc1 (centres undefined) , value?
Result: > 100 µM

Request: Which measured TGI belongs to N#C[C@H](C(=O)c1ccccc1F)c1nc2ccccc2[nH]1 , tested on HS 578T breast?
Result: > 100 µM

----------
Tested on: MOLT-4 leukemia
Assay: NCI tumour cell line growth inhibition, 48 h
measured.attribute: GI50

Request: Looking for the measured GI50 of Oc1ccc(-c2[nH]c3ccccc3c2-c2nc3ccccc3o2)cc1 , can you help?
Result: 6.49 µM

Request: Any idea what its GI50 is? The compound is CC1CCC2c3c([nH]c4ccccc34)C3C(=O)N(c4ccccc4)C(=O)C3C2C1 (configuration not stated)
Result: 44.7 µM

Request: // lookup GI50 for c1ccc2c(c1)[O][Sn][O]2
Result: 7.16 µg/mL

Request: Quick check: GI50 of CC1(C)OC2OC(COC(=O)C(c3ccccc3)c3ccccc3)C3OC(C)(C)OC3C2O1 (configuration not stated) ?
Result: 3.76 µM

Request: Tell me the measured GI50 of Cc1n(Cc2ccc3ccccc3n2)cc[n+]1Cc1ccc2ccccc2c1 , please.
Result: 0.948 µM

Request: Which GI50 is reported for this compound? O=C(/C=C/c1cccc(Oc2ccc(Cl)cc2)c1)c1ccccc1
Result: 30.8 µM

Request: Fill in the blank: the reported GI50 of COc1cc(OC)c(/C=C/C(=O)c2c(N)cc(OC)cc2OC)c(OC)c1 is ____.
Result: 1.02 µM

Data provenance is PubChem BioAssay (NCI).
